Values from patent US20230016424A1

As shown below, each of these compounds has a reported MIC C. krusei value.
Tested on: C. krusei
Test: MIC
Format: cell-based
quantity.kind: MIC C. krusei (µM)

INSERT INTO measurements (compound, meas_value) VALUES
  ('CC1C=CC=CC=CC=CC=CC=CC=CC(OC2OC(C)C(O)C(N)C2O)CC2OC(O)(CC(O)CC(O)C(O)CCC(O)CC(O)CC(=O)OC(C)C(C)C1O)CC(O)C2C(=O)NC1CCC1 (stereo not shown) [BE]', 4),
  ('CC1C=CC=CC=CC=CC=CC=CC=CC(OC2OC(C)C(O)C(N)C2O)CC2OC(O)(CC(O)CC(O)C(O)CCC(O)CC(O)CC(=O)OC(C)C(C)C1O)CC(O)C2C(=O)NCCN (stereo not shown)', 4),
  ('CC1C=CC=CC=CC=CC=CC=CC=CC(OC2OC(C)C(O)C(N)C2O)CC2OC(O)(CC(O)CC(O)C(O)CCC(O)CC(O)CC(=O)OC(C)C(C)C1O)CC(O)C2C(=O)NCCF (stereo not shown)', 1000),
  ('CC(O)CNC(=O)C1C(O)CC2(O)CC(O)CC(O)C(O)CCC(O)CC(O)CC(=O)OC(C)C(C)C(O)C(C)C=CC=CC=CC=CC=CC=CC=CC(OC3OC(C)C(O)C(N)C3O)CC1O2 (stereo not shown)', 0.75),
  ('CC1C=CC=CC=CC=CC=CC=CC=CC(OC2OC(C)C(O)C(N)C2O)CC2OC(O)(CC(O)CC(O)C(O)CCC(O)CC(O)CC(=O)OC(C)C(C)C1O)CC(O)C2C(=O)NC1CC1 (stereo not shown) [BD]', 4),
  ('CC1C=CC=CC=CC=CC=CC=CC=CC(OC2OC(C)C(O)C(N)C2O)CC2OC(O)(CC(O)CC(O)C(O)CCC(O)CC(O)CC(=O)OC(C)C(C)C1O)CC(O)C2C(=O)NC1CCCCCCCCCCC1 (stereo not shown)', 8000),
  ('CC1C=CC=CC=CC=CC=CC=CC=CC(OC2OC(C)C(O)C(N)C2O)CC2OC(O)(CC(O)CC(O)C(O)CCC(O)CC(O)CC(=O)OC(C)C(C)C1O)CC(O)C2C(=O)NC1CCCCCCCCC1 (stereo not shown)', 1000);
